TEST_SUMMARY: Antiproliferative activity against human K562 cells after 72 hrs by CellTiter-Blue1 assay
Assay type: cell-based
READOUT_TYPE: GI50 at 72 h

Task: Let me know recorded GI50 at 72 h for C[C@H]1OC(=O)CCC(Cc2ccccc2)NC(=O)[C@@H](NC(=O)c2ncccc2O)[C@@H](C)OC1=O (some centres not stated) , thanks.
Output: > 5 µg/mL

Task: Let me know recorded GI50 at 72 h for C[C@H]1OC(=O)COC(=O)CCC(Cc2ccccc2)NC(=O)[C@H]1NC(=O)OC(C)(C)C (stereo in doubt; form 2) , thanks.
Output: 5 to 50 µg/mL

====

Tested on: Mycolicibacterium vaccae
TEST_SUMMARY: Antimycobacterial activity against Mycobacterium vaccae IMET 10670 incubated overnight at 37 degC measured after 24 hrs by agar diffusion method
Assay type: functional
READOUT_TYPE: diameter of the inhibition zone (DIZ)

Task: Let me know recorded diameter of the inhibition zone (DIZ) for C[C@H]1OC(=O)COC(=O)CCC(Cc2ccccc2)NC(=O)[C@H]1NC(=O)OC(C)(C)C (stereo in doubt; form 1) , thanks.
Output: 20 - 26 mm

Task: Let me know recorded diameter of the inhibition zone (DIZ) for C[C@H]1OC(=O)COC(=O)CCC(Cc2ccccc2)NC(=O)[C@H]1NC(=O)OC(C)(C)C (stereo in doubt; form 2) , thanks.
Output: 24 - 31 mm

Task: Let me know recorded diameter of the inhibition zone (DIZ) for C[C@H]1OC(=O)CCC(Cc2ccccc2)NC(=O)[C@@H](NC(=O)c2ncccc2O)[C@@H](C)OC1=O (some centres undefined) , thanks.
Output: 21 - 29 mm

Task: Let me know recorded diameter of the inhibition zone (DIZ) for C[C@H]1OC(=O)CCC(Cc2ccccc2)NC(=O)[C@@H](NC(=O)OC(C)(C)C)[C@@H](C)OC1=O (stereo in doubt; form 2) , thanks.
Output: 0 mm

====

Please provide measured MIC for the entries that follow.
System: Mycobacterium tuberculosis
TEST_SUMMARY: Antimycobacterial activity against Mycobacterium tuberculosis H37Rv after 7 days by BacTiter-Glo microbial cell viability assay
Assay type: functional
MEASUREMENT_PARAMETERS: Mycobacterium tuberculosis, H37Rv, 168 h; read-out: MIC
Expressed in µM, but write only the number.

Task: Let me know recorded MIC for C[C@H]1OC(=O)CCC(Cc2ccccc2)NC(=O)[C@@H](NC(=O)c2ncccc2O)[C@@H](C)OC1=O (some centres undefined) , thanks.
Output: 8

Task: Let me know recorded MIC for NNC(=O)c1ccncc1 [ISONIAZID] , thanks.
Output: 0.31

Task: Let me know recorded MIC for C[C@H]1OC(=O)COC(=O)CCC(Cc2ccccc2)NC(=O)[C@H]1NC(=O)OC(C)(C)C (stereo in doubt; form 2) , thanks.
Output: 4

Task: Let me know recorded MIC for C[C@H]1OC(=O)CCC(Cc2ccccc2)NC(=O)[C@@H](NC(=O)OC(C)(C)C)[C@@H](C)OC1=O (stereo in doubt; form 2) , thanks.
Output: 125
